Test: log p (partition coefficient octanol/water, determined experimentally from reversed phase HPLC)
Assay type: physicochemical
Settings: reversed phase hplc, B isomer
test_readout: chromatographic logP
One number for each entry.

compound: CON=C(COc1ccc(-c2ccc(C3COC(c4c(F)cccc4F)=N3)cc2)cc1)c1cc(Cl)ccc1Cl (centres unmarked)
test_readout: chromatographic logP
experimental_result: 5.44

Below are some compounds; for each one, tell me its chromatographic logP.
1. CON=C(COc1ccc(-c2ccc(C3COC(c4c(F)cccc4F)=N3)cc2)cc1)c1ccc(C(F)F)cc1 (centres unmarked)
2. CCON=C(C)COc1ccc(-c2ccc(C3COC(c4c(F)cccc4F)=N3)cc2)cc1Cl (centres unmarked)
3. C=CCON=C(C)COc1ccc(-c2ccc(C3COC(c4ccccc4Cl)=N3)cc2)cc1 (centres unmarked)
4. CON=C(COc1ccc(-c2ccc(C3COC(c4c(F)cccc4F)=N3)cc2)cc1)c1cccc(C(F)(F)F)c1 (centres unmarked)
5. CCON=C(COc1ccc(-c2ccc(C3COC(c4c(F)cccc4F)=N3)cc2)cc1)c1ccc(C)cc1 (centres unmarked)

A.
1: 4.98; 2: 5.19; 3: 5.2; 4: 4.49; 5: 5.71

Record chromatographic logP per entry; entries follow.
1. CC(COc1ccc(-c2ccc(C3COC(c4c(F)cccc4F)=N3)cc2)cc1)=NOC(C)C (centres unmarked)
2. CC(=NOC(C)C)C(C)Oc1ccc(-c2ccc(C3COC(c4ccccc4Cl)=N3)cc2)cc1 (centres unmarked)

A.
[5.17, 6.02]

###

Assay: log p (partition coefficient octanol/water, determined experimentally from reversed phase HPLC)
Assay type: physicochemical
Settings: reversed phase hplc
test_readout: chromatographic logP
Answers are plain numbers.

molecule: CCON=C(C)C(C)(C)Oc1ccc(-c2ccc(C3COC(c4c(F)cccc4Cl)=N3)cc2)cc1 (stereo not shown) [Example 161]
test_readout: chromatographic logP
experimental_result: 5.88

molecule: CON=C(COc1ccc(-c2ccc(C3COC(c4c(F)cccc4F)=N3)cc2)cc1)c1ccc(C(F)(F)F)cc1 (stereo not shown) [Example 111]
test_readout: chromatographic logP
experimental_result: 5.53

molecule: Cc1ccc(C(=O)COc2ccc(-c3ccc(C4COC(c5c(F)cccc5F)=N4)cc3)cc2)cc1C (stereo not shown) [Example 148]
test_readout: chromatographic logP
experimental_result: 4.62

Next item in the queue.
Q. Give the measured chromatographic logP for CCON=C(C)C(C)Oc1ccc(-c2ccc(C3COC(c4c(F)cccc4F)=N3)cc2)cc1 (single isomer, unassigned) [Example 70]
A. 5.12

###

Experiment: log p (partition coefficient octanol/water, determined experimentally from reversed phase HPLC)
Format: physicochemical
Conditions: reversed phase hplc, B isomer
test_readout: chromatographic logP
Numbers only.

// worked examples, chromatographic logP included
compound: CCON=C(COc1ccc(-c2ccc(C3COC(c4c(F)cccc4F)=N3)cc2)cc1)c1ccc(Cl)c(C)c1 (stereo not shown) [Example 141]
chromatographic logP: 6.23
//
compound: CC(COc1ccc(-c2ccc(C3COC(c4c(F)cccc4Cl)=N3)cc2)cc1)=NOC(C)C (stereo not shown) [Example 124]
chromatographic logP: 5.88

I have 2 compounds here; please give me chromatographic logP for each one.
1. CON=C(COc1ccc(-c2ccc(C3COC(c4c(F)cccc4F)=N3)cc2)cc1)c1ccc(Cl)cc1 (stereo not shown) [Example 130]
2. CCON=C(C)C(C)Oc1ccc(-c2ccc(C3COC(c4c(F)cccc4Cl)=N3)cc2)cc1 (stereo not shown) [Example 62]

A.
1: 5.54; 2: 5.42

###

For each record, write down the corresponding chromatographic logP.
Experiment: log p (partition coefficient octanol/water, determined experimentally from reversed phase HPLC)
Format: physicochemical
Details: reversed phase hplc, B isomer
Numbers only.

Reference set (5 entries):
compound: CCON=C(COc1ccc(-c2ccc(C3COC(c4c(F)cccc4F)=N3)cc2)cc1)c1ccc(OC)cc1 (stereo not shown)
chromatographic logP: 5.27
//
compound: CCON=C(COc1ccc(-c2ccc(C3COC(c4c(F)cccc4F)=N3)cc2)cc1)c1ccc(Br)cc1 (stereo not shown)
chromatographic logP: 5.57
//
compound: CCON=C(COc1ccc(-c2ccc(C3COC(c4c(F)cccc4F)=N3)cc2)cc1)c1ccc(C(F)F)cc1 (stereo not shown)
chromatographic logP: 5.31
//
compound: C=CCON=C(C)COc1ccc(-c2ccc(C3COC(c4c(F)cccc4F)=N3)cc2)cc1 (stereo not shown)
chromatographic logP: 4.72
//
compound: C=CCON=C(C)C(C)Oc1ccc(-c2ccc(C3COC(c4c(F)cccc4F)=N3)cc2)cc1Cl (stereo not shown)
chromatographic logP: 5.58

Record chromatographic logP per entry; entries follow.
1. CC(=NOC(C)C)C(C)Oc1ccc(-c2ccc(C3COC(c4c(F)cccc4Cl)=N3)cc2)cc1 (stereo not shown)
2. CON=C(COc1ccc(-c2ccc(C3COC(c4c(F)cccc4F)=N3)cc2)cc1)C1CC1 (stereo not shown)

A.
6.3
4.56

###

Experiment: log p (partition coefficient octanol/water, determined experimentally from reversed phase HPLC)
Format: physicochemical
Details: reversed phase hplc
Lab note: compare chromatographic logP against 4. Equal or greater, write 1. Smaller, write -1.

compound: CCN(CC)C(=O)COc1ccc(-c2ccc(C3COC(c4c(F)cccc4F)=N3)cc2)cc1 (stereo not shown) [Example 15]
class_assignment: -1

compound: CC(C)C(C)(C)C(=O)COc1ccc(-c2ccc(C3COC(c4c(F)cccc4F)=N3)cc2)cc1 (stereo not shown) [Example 68]
class_assignment: 1

compound: CC(=O)C(C)(C)Oc1ccc(-c2ccc(C3COC(c4c(F)cccc4Cl)=N3)cc2)cc1 (stereo not shown) [Example 151]
class_assignment: 1

compound: CON=C(c1ccccc1F)C(C)Oc1ccc(-c2ccc(C3COC(c4c(F)cccc4F)=N3)cc2)cc1 (stereo not shown) [Example 108]
class_assignment: 1

compound: CC(C)C(C#N)Oc1ccc(-c2ccc(C3COC(c4c(F)cccc4F)=N3)cc2)cc1 (stereo not shown) [Example 17]
class_assignment: 1

# evaluate next
Q. Please tell me: is the compound CCON=C(C)C(C)Oc1ccc(-c2ccc(C3COC(c4ccccc4Cl)=N3)cc2)cc1 (single isomer, unassigned) [Example 85] at or over 4 in terms of chromatographic logP?
A. 1

###

Exercise: state measured chromatographic logP for each of the molecules provided.
Assay: log p (partition coefficient octanol/water, determined experimentally from reversed phase HPLC)
Type: physicochemical
Details: reversed phase hplc, A isomer
Give bare numbers.

molecule: C=CCON=C(C)COc1ccc(-c2ccc(C3COC(c4c(F)cccc4Cl)=N3)cc2)cc1 (stereo not shown) [Example 125]
chromatographic logP: 5.04

molecule: CCON=C(COc1ccc(-c2ccc(C3COC(c4c(F)cccc4F)=N3)cc2)cc1)c1ccc(C(F)F)cc1 (stereo not shown) [Example 139]
chromatographic logP: 5.07

molecule: CON=C(C)COc1ccc(-c2ccc(C3COC(c4c(F)cccc4F)=N3)cc2)cc1Cl (stereo not shown) [Example 86]
chromatographic logP: 4.79

molecule: CCON=C(COc1ccc(-c2ccc(C3COC(c4c(F)cccc4F)=N3)cc2)cc1)c1ccc(C)c(C)c1 (stereo not shown) [Example 190]
chromatographic logP: 5.94

molecule: CCON=C(COc1ccc(-c2ccc(C3COC(c4c(F)cccc4F)=N3)cc2)cc1)c1ccc(C(F)(F)F)cc1 (stereo not shown) [Example 112]
chromatographic logP: 5.87

Provide each entry's chromatographic logP from the list below.
1. CCON=C(COc1ccc(-c2ccc(C3COC(c4c(F)cccc4F)=N3)cc2)cc1)C(C)C (stereo not shown) [Example 78]
2. CON=C(COc1ccc(-c2ccc(C3COC(c4c(F)cccc4F)=N3)cc2)cc1)c1cccc(Cl)c1 (stereo not shown) [Example 115]

A.
1. 5.72
2. 5.52

###

Assay: log p (partition coefficient octanol/water, determined experimentally from reversed phase HPLC)
Type: physicochemical
Details: reversed phase hplc
Exercise: state measured chromatographic logP for each of the molecules provided.
Numbers only.

Recorded chromatographic logP, per entry:
molecule: Cc1cc(C(=O)COc2ccc(-c3ccc(C4COC(c5c(F)cccc5F)=N4)cc3)cc2)ccc1Cl (stereo not shown) [Example 117]
test_readout: chromatographic logP
experimental_result: 4.86
//
molecule: O=C(COc1ccc(-c2ccc(C3COC(c4c(F)cccc4F)=N3)cc2)cc1)c1cc(Cl)ccc1Cl (stereo not shown) [Example 132]
test_readout: chromatographic logP
experimental_result: 4.78
//
molecule: C=CCN(CC=C)C(=O)COc1ccc(-c2ccc(C3COC(c4c(F)cccc4F)=N3)cc2)cc1 (stereo not shown) [Example 47]
test_readout: chromatographic logP
experimental_result: 3.76

Could you now consider this next molecule?
Q. Specify measured chromatographic logP for CC(=O)C(C)Oc1ccc(-c2ccc(C3COC(c4ccccc4Cl)=N3)cc2)cc1Cl (stereo not shown) [Example 113] .
A. 4.51

###

Assay: log p (partition coefficient octanol/water, determined experimentally from reversed phase HPLC)
Assay type: physicochemical
Conditions: reversed phase hplc, B isomer
test_readout: chromatographic logP
Give bare numbers.

The cases that follow already have their chromatographic logP on record.
compound: CON=C(COc1ccc(-c2ccc(C3COC(c4c(F)cccc4F)=N3)cc2)cc1)c1ccc(OC(F)(F)C(F)F)cc1 (stereo not drawn)
experimental_result: 5.04

compound: CCON=C(COc1ccc(-c2ccc(C3COC(c4c(F)cccc4F)=N3)cc2)cc1)C1CC1 (stereo not drawn)
experimental_result: 4.92

Now for the compound whose chromatographic logP we want.
Q. Please report the measured chromatographic logP for C=CCON=C(C)C(C)Oc1ccc(-c2ccc(C3COC(c4c(F)cccc4F)=N3)cc2)cc1 (stereo not drawn)
A. 5.13
